Source: the Immune Epitope Database (IEDB)

- test system: HLA-B*44:02
- test details: IEDB peptide-MHC binding, purified MHC/direct/fluorescence; filed as Kd, often an IC50 or EC50 that approximates it; bounds were set here for any values at or beyond the usual limits of such assays
- settings: source organism: Sudan ebolavirus - Maleo (1979)
pKd: −log10 of the molar value.
test readout: pKd

The sequence identified as MHYKLDEVL registered its pKd at ≤ 4.70

----------
- test system: HLA-A*02:01
- test details: IEDB peptide-MHC binding, purified MHC/competitive/fluorescence; filed as Kd, often an IC50 or EC50 that approximates it; bounds were set here for any values at or beyond the usual limits of such assays
- settings: source organism: Mus musculus
test readout: Kd

Input LVDENQSWY . Output Kd: ≥ 20 µM
